- assay-overview: Half-life in liver microsomes (Example 4)
- Type: in vitro ADME
- measurement-parameters: rat and human liver microsomes, species of the value not stated
quantity-kind: half-life (h)
Express it in h; write the number only.

half-life in this record for COc1ccc(-n2nc3c4ccc(OC)cc4[nH]cc-3c2=O)cc1 : 2.92

====

- assay-overview: Pharmacokinetic study in rats, plasma and brain
- measurement-parameters: male, Wistar, rat, in vivo, ip, 10 mg/kg
quantity-kind: half-life

Sure, the documented half-life for [2H]C([2H])([2H])Oc1ccc2c3nn(-c4ccc(OC)nc4)c(=O)c-3c[nH]c2c1 is ~9 h

====

- assay-overview: Microsomal stability assay, human liver microsomes
- Format: in vitro ADME
- measurement-parameters: 10 μM test compound, 0.5 mg/mL protein, 37° C.
quantity-kind: % left after 1 hr. (HLM) (%)
Number only, in %; omit the unit.

Record excerpt, results attached:
{"chemical-smiles": "COc1ccc(-n2nc3c4cc(Cl)ccc4[nH]cc-3c2=O)cn1", "% left after 1 hr. (HLM) (%)": 91.6}
{"chemical-smiles": "[2H]C([2H])([2H])Oc1ccc(-n2nc3c4ccc(OC)cc4[nH]cc-3c2=O)cc1", "% left after 1 hr. (HLM) (%)": 91.69}
{"chemical-smiles": "[2H]C([2H])([2H])Oc1ccc(-n2nc3c4ccc(OC([2H])([2H])[2H])cc4[nH]cc-3c2=O)cc1", "% left after 1 hr. (HLM) (%)": 91.51}
{"chemical-smiles": "[2H]C([2H])([2H])Oc1ccc(-n2nc3c4cc(Cl)ccc4[nH]cc-3c2=O)cc1", "% left after 1 hr. (HLM) (%)": 92.2}
{"chemical-smiles": "[2H]C([2H])([2H])Oc1ccc(-n2nc3c4ccc(OC)cc4[nH]cc-3c2=O)cn1", "% left after 1 hr. (HLM) (%)": 92.5}

Note: attention shifts to another entry.
// [2H]C([2H])([2H])Oc1ccc2c3nn(-c4ccc(OC)nc4)c(=O)c-3c[nH]c2c1 : % left after 1 hr. (HLM) value = 92.3
